- system_name: T1, ST2 on the effector cells (KU812, KU812/NF-κB-1#, HUVEC, HMC-1) (human, UniProt Q01638 19-556)
- T1 sequence (looked up): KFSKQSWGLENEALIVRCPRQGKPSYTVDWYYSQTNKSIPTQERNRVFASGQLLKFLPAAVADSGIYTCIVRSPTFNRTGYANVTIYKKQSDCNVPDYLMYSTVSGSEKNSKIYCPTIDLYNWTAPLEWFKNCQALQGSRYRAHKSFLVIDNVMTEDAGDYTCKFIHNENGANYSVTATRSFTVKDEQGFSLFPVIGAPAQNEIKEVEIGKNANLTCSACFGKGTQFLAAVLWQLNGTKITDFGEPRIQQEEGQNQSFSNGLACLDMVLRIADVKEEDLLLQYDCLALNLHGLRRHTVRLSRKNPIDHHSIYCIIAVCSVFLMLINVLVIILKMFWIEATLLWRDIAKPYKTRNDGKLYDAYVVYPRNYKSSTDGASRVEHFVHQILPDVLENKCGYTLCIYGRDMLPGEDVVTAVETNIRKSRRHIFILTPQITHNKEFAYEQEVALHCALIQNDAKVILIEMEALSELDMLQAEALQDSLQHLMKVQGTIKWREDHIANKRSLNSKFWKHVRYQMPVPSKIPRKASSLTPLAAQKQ
- procedure_text: cell-based or functional assay
assay_readout: Maximum inhibition rate, KU812-IL5 production by oxidized IL33 (%)
Give bare numbers, in %.

Past entries and their recorded results:
| binder | measure_unit | value_reported |
| --- | --- | --- |
| 5888-379-H1L0 (antibody, human IgG4 S228P, kappa, V domains shown, Humanized antibody) VH: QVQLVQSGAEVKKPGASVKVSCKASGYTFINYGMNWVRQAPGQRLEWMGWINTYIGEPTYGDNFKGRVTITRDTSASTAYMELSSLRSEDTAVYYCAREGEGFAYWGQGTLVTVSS VL: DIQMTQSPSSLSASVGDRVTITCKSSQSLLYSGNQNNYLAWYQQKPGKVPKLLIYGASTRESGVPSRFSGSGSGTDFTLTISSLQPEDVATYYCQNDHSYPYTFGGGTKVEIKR | % | 101 |
| 5887-41-H1L0 (antibody, human IgG4 S228P, kappa, V domains shown, Humanized antibody) VH: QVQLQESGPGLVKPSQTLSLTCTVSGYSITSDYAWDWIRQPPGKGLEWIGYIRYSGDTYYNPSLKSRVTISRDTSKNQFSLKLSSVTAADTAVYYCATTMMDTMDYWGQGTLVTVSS VL: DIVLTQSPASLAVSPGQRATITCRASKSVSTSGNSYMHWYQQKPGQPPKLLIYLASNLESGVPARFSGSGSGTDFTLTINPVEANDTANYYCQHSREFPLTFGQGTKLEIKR | % | 101 |

Let us examine a further case.
get_value(item= 5888-153-H3L2 (antibody, human IgG4 S228P, kappa, V domains shown, Humanized antibody) VH: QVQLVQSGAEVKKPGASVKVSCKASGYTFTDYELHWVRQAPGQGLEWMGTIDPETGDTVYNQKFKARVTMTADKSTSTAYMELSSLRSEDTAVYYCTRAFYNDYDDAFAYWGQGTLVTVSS VL: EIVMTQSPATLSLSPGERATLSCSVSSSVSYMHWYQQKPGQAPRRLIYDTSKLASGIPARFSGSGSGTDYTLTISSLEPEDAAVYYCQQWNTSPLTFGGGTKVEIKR , readout=Maximum inhibition rate, KU812-IL5 production by oxidized IL33) returns 101
